Record form. Attribute: kon. Fill in for each entry.
# test target: T1, HCV Core 134-171-TT Peptide (hepatitis C virus (HCV-1 numbering) …)
# T1 construct: also called ALRZ-9 peptide
# experiment notes: SPR, captured mAb, peptide analyte
Express the result in M⁻¹ s⁻¹ but write the number alone.

*Q* Can you look up the measured kon of HCV 208B-251 (antibody, V domains shown) VH: QLQQSGPVLVKPGASVKISCKTSGYTFTENAMHWVKQSHGKSLEWIGGVNPNNGDTIYNQKFKGKATLTVDKSSSTAFMELRSLTSEESPVYFCVRRELDFFDYWGQGTSVTVSS VL: DIVLTQSPASLAVSLGKKATISCRASQSVSTSRYSYMHWYQQKPGHPPKLLIKYASNLESGVPARFSGSGSGTDFTLNIHPVAEEDTAAYYCQHSWEFPFTFGSGTKLEIKR for me?
*A* 1.1e+06

*Q* Okay, and HCV 208B-1024 (antibody, V domains shown) VH: EVQLVESGGDLVKPGGSLKLSCAASGFTFSNYGMSWVRQTPDKRLEWVATISSGGSYSYYPDSVKGRFTISRDNAKNILYLQMSSLKSEDTAMYYCASLYYGYGDYWGQGTAFTVSS VL: DVLMTQTPLSLPVSLGDQASISCRSSQSIVHSNGNTYLEWYLQKLGQSPKLLIYRVSNRFSGVPDRFSGSGSGTDFTLKISRVEAEDLGVYYCFQGSHVPWTFGGGTKLEIKR ?
*A* 1e+06

*Q* Okay, and HCV 208B-672 (antibody, V domains shown) VH: EVKLVESGGSLVQPGGSLKLSCAASGFNFNTYAMSWVRQTPEKRLEWVAYISNGGGNTYYVDTVKGRFTISRDNAKNTLYLRMSSLKSEDTAMYYCARHGLYWGYSMDYWGQGTSVTVSS VL: DIQMTQSPSSLSASLGERVSLTCRASQDIGGSINWLQQEPDGTIKRLIYATSSLDSGVPKRFSGSRSGSDYSLTISSLESEDFVDYYCLQYASSPPTFGGGTKLEIKR ?
*A* 2.2e+06
